- assay.details: Primary qHTS for delayed death inhibitors of the malarial parasite plastid, 48 hour incubation; also: potency is read from the fitted curve at half-maximal effect
- reported.conditions: P. falciparum luciferase growth in erythrocytes; series mostly up to 28.7 µM
About 18,000 (5.8%) of roughly 310,000 compounds were called active. Not shown: some 22% with an inconclusive outcome. Many of the other results were omitted from the sample, so actives are more common in it than they were.
readout.label: Potency

Guide cases for Potency, answers given:
NC(=O)c1oc2ccccc2c1NC(=O)CS(=O)(=O)c1ccccc1 : inactive
COC(=O)c1ccc(COc2ccc(C#N)cc2)o1 : inactive
CCN(CC)c1ccc([N+](=O)[O-])cc1C(=O)O : inactive
CCCC[C@@H]1CN=C(N)N1CCc1cc(C(F)(F)F)cc(C(F)(F)F)c1 : 5.22 µM (active)
CN(C)CCCO/N=C(\c1ccccc1)c1ccncc1 : inactive
COc1ccc(-n2ncc3c(SCC(=O)NNC(C)=O)ncnc32)cc1 : inactive
Cc1cccc(Cn2c(N3CCN(c4ccccc4)CC3)nc3c2c(=O)n(C)c(=O)n3C)c1 : inactive
CCOc1ccc(S(=O)(=O)N2CCCC(C(=O)N3CCC(C(N)=O)CC3)C2)cc1Cl (configuration not stated) : inactive

Memo: Cn1cc[n+](C)c1COc1ccc(C=O)cc1 , reported Potency: inactive

Memo: Cc1csc2nc(O)c(C(=O)NCCN3CCOCC3)c(=O)n12 , reported Potency: inactive

Memo: O=C(c1cn(-c2ccccc2)nc1-c1cccnc1)N1CCN(S(=O)(=O)c2ccccc2F)CC1 , reported Potency: 11.7 µM (active)

###

- assay.details: Primary qHTS for delayed death inhibitors of the malarial parasite plastid, 48 hour incubation
- reported.conditions: P. falciparum luciferase growth in erythrocytes; series mostly up to 28.7 µM
Screen size: about 310,000 compounds; about 18,000 (5.8%) were called active. About 22% were inconclusive and are not listed. The call rests on the fitted dose curve; in most records, active means well fitted inhibition curve with a large enough effect; inconclusive means small, poorly fitted or top-dose-only effect, or another doubt; inactive means no such curve, though single readings can be large or run the other way. What follows is part of a selection rich in actives, with near analogues and random picks from the rest.
Entry note: the call must match one of TRUE (active), FALSE (inactive)

### Prompt GET /call?item= CC(NS(=O)(=O)c1ccc(OCC(=O)N2CCCC2)cc1)c1ccccc1 (stereo not drawn) returns the recorded outcome of this test.
### Response FALSE

### Prompt GET /call?item= COc1ccc(C2(C)ON(c3ccccc3C(F)(F)F)C2=O)cc1 (stereo not drawn) returns the recorded outcome of this test.
### Response TRUE

### Prompt GET /call?item= CC(C)[C@H](NC(=O)N1CCn2c1nc1ccccc12)C(=O)NCc1ccc2c(c1)OCO2 returns the recorded outcome of this test.
### Response FALSE

### Prompt GET /call?item= Cc1cccc(C(=O)Nc2ccc(C(=O)N/N=C/c3cccc(C)n3)cc2)c1 returns the recorded outcome of this test.
### Response FALSE

### Prompt GET /call?item= NC(=O)Cn1cc(/C=N\NS(=O)(=O)c2ccccc2)c2ccccc21 returns the recorded outcome of this test.
### Response FALSE

### Prompt GET /call?item= CCCC(=O)Nc1nnc(-c2ccccc2)o1 returns the recorded outcome of this test.
### Response FALSE

### Prompt GET /call?item= CC(C)C(=O)Nc1oc(-c2ccccc2)cc1C#N returns the recorded outcome of this test.
### Response TRUE

### Prompt GET /call?item= CCN(c1ccccc1)S(=O)(=O)c1ccc(OCC(=O)N2CCCC2)cc1 returns the recorded outcome of this test.
### Response TRUE

### Prompt GET /call?item= Cc1ccc(C)c(-c2nnc(NC(=O)CS(=O)(=O)c3ccccc3)o2)c1 returns the recorded outcome of this test.
### Response TRUE

### Prompt GET /call?item= CC1CCCCN1C(=O)CCS(=O)(=O)Cc1ccccc1 (stereo not drawn) returns the recorded outcome of this test.
### Response FALSE

### Prompt GET /call?item= COC(=O)c1sccc1NC(=O)c1ccc(Cl)cc1 returns the recorded outcome of this test.
### Response FALSE

### Prompt GET /call?item= Cc1ccc(OCCCC(=O)Nc2ccc(S(=O)(=O)Nc3cc(C)nc(C)n3)cc2)cc1 returns the recorded outcome of this test.
### Response FALSE

### Prompt GET /call?item= O=C(Nc1ccccc1N1CCCC1)c1ccc2ccccc2c1 returns the recorded outcome of this test.
### Response FALSE

### Prompt GET /call?item= CCCCN(CC(=O)Nc1cccc(S(=O)(=O)N2CCCC2)c1)Cc1nc2ccccc2c(=O)[nH]1 returns the recorded outcome of this test.
### Response TRUE

### Prompt GET /call?item= COc1ccc(NS(=O)(=O)c2ccc(F)cc2F)cn1 returns the recorded outcome of this test.
### Response FALSE

### Prompt GET /call?item= COc1ccc(CN2CCN(C(=O)c3cc(C4CC4)nn3-c3ccccc3)CC2)cc1F returns the recorded outcome of this test.
### Response TRUE

### Prompt GET /call?item= Cc1nn(-c2ccccc2)c(C)c1/C=N/NC(=O)CSc1nc2ccccc2c(=O)n1-c1ccccc1 returns the recorded outcome of this test.
### Response FALSE

### Prompt GET /call?item= COc1cccc(-c2nc(CS(=O)CC(=O)NCc3ccc(F)cc3)c(C)o2)c1 (stereo not drawn) returns the recorded outcome of this test.
### Response FALSE

### Prompt GET /call?item= Cc1cc(Cl)c2oc(C(=O)N(C)C(C)c3ccccn3)c(C)c2c1 (stereo not drawn) returns the recorded outcome of this test.
### Response FALSE

### Prompt GET /call?item= COCCNC(=O)c1ccc(-n2c(SCc3cccnc3)nc3ccccc3c2=O)cc1 returns the recorded outcome of this test.
### Response FALSE

### Prompt GET /call?item= COc1ccc(C)cc1NC(=O)CSc1nnc(CC(=O)Nc2ccccc2F)n1C returns the recorded outcome of this test.
### Response FALSE

### Prompt GET /call?item= Cc1ccc(S(=O)(=O)NCC(=O)N2CCOCCOCCOCCOCC2)cc1 returns the recorded outcome of this test.
### Response FALSE

### Prompt GET /call?item= Cc1ccc(NC(=O)C(CC(=O)O)C2CCCO2)c(C)c1 (stereo not drawn) returns the recorded outcome of this test.
### Response FALSE

### Prompt GET /call?item= COc1ccc2cc(C(=O)O)n(CC(=O)c3ccccc3)c2c1 returns the recorded outcome of this test.
### Response FALSE

### Prompt GET /call?item= CCC(C)N1CC(=O)N2Cc3[nH]c4ccccc4c3C[C@H]2C1=O (stereo partly drawn) returns the recorded outcome of this test.
### Response FALSE

### Prompt GET /call?item= Cc1onc(-c2ccccc2)c1C(=O)N=C(N)c1ccc(Cl)cc1 returns the recorded outcome of this test.
### Response FALSE

### Prompt GET /call?item= C[C@H](NC(=O)c1ccccc1Cl)C(=O)OCC(=O)N1CCN(c2ccccc2)CC1 returns the recorded outcome of this test.
### Response FALSE

### Prompt GET /call?item= COc1cc(CN2CCC(C(N)=O)CC2)ccc1OCc1ccccc1 returns the recorded outcome of this test.
### Response FALSE

### Prompt GET /call?item= Cc1ccc(CN(CC(=O)NCC2CCCO2)S(=O)(=O)c2ccc(C)cc2)cc1 (stereo not drawn) returns the recorded outcome of this test.
### Response FALSE

### Prompt GET /call?item= CC(=O)NC(CC(=O)Nc1cccc(S(=O)(=O)N2CCCC2)c1)c1ccccc1 (stereo not drawn) returns the recorded outcome of this test.
### Response FALSE

### Prompt GET /call?item= CCOC(=O)c1ccc(NC(=S)N2CCN(c3ccccn3)CC2)cc1 returns the recorded outcome of this test.
### Response FALSE

### Prompt GET /call?item= Cc1ccc2nc(SCC(=O)NC3CCCC3)[nH]c2c1 returns the recorded outcome of this test.
### Response FALSE

### Prompt GET /call?item= C/C(=N\OCC(=O)O)c1ccc(Cl)cc1 returns the recorded outcome of this test.
### Response FALSE

### Prompt GET /call?item= COc1ccc(C2(O)C(=O)Nc3ccccc32)cc1 (stereo not drawn) returns the recorded outcome of this test.
### Response FALSE

### Prompt GET /call?item= COC(=O)c1ccc(CSc2nc3ccccc3c(=O)n2-c2cccc(OC)c2)o1 returns the recorded outcome of this test.
### Response TRUE

### Prompt GET /call?item= COc1cccc(NC(=O)CN(C)C(=O)CSCc2nc3scc(-c4cccs4)c3c(=O)[nH]2)c1 returns the recorded outcome of this test.
### Response FALSE

### Prompt GET /call?item= Cc1cccc(N2C(=O)c3ccc(C(=O)Nc4cccc(C(=O)O)c4)cc3C2=O)c1 returns the recorded outcome of this test.
### Response FALSE

### Prompt GET /call?item= COc1ccc(OC)c(NC(=O)C2CCCN2S(=O)(=O)c2cccc3nsnc23)c1 (stereo not drawn) returns the recorded outcome of this test.
### Response FALSE

### Prompt GET /call?item= CCOC(=O)N1CCN(C(=O)C(=O)Nc2sc3c(c2C#N)CC(C)(C)OC3)CC1 returns the recorded outcome of this test.
### Response FALSE

### Prompt GET /call?item= COc1ccc(S(=O)(=O)N(CC(=O)N/N=C/c2ccc(C(=O)O)cc2)Cc2ccccc2)cc1OC returns the recorded outcome of this test.
### Response FALSE

### Prompt GET /call?item= CC(=O)C(C)n1cnc2scc(-c3ccc(C)cc3)c2c1=O (stereo not drawn) returns the recorded outcome of this test.
### Response FALSE

### Prompt GET /call?item= CC(C)CC(O)C1CCN(C(=O)CCc2nnc(-c3ccc4c(c3)OCO4)o2)CC1 (stereo not drawn) returns the recorded outcome of this test.
### Response FALSE

### Prompt GET /call?item= O=C(CN1CCCSc2ccccc21)N1CCN(S(=O)(=O)c2ccccc2)CC1 returns the recorded outcome of this test.
### Response FALSE
